B1: library; a variant is named by its letters at N, in order (parent)
chain: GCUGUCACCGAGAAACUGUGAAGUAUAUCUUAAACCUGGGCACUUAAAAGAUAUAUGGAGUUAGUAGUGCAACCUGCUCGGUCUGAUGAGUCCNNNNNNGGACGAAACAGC

Variants of: B1
Assay: normalized RNA/DNA level without ligand (relative to sTRSVctl = 100) (log10 (% of sTRSVctl)); HEK293T; ligand: cyclic di-GMP (c-di-GMP-II aptamer); higher = less ribozyme self-cleavage, higher mRNA level
Conditions: reporter: mCherry (pCS4076), ligand present: no
assay-metric: normalized RNA/DNA level without ligand (log10)

{"change": "UUUCCU", "numeric-readout": 1.81}
{"change": "UCAAAA", "numeric-readout": 1.46}
{"change": "AUUAGG", "numeric-readout": 1.56}
{"change": "CUAAUU", "numeric-readout": 1.54}
{"change": "UCACUG", "numeric-readout": 1.63}

These entries and their values trace back to the supplement of paper PMC6757056.
